Catalogue of molecules with associated isoTOP-ABPP reactivity ratio, Q6L8Q7_C108
Molecular target: PDE12 C108 (Q6L8Q7) (Homo sapiens, UniProt Q6L8Q7)
Sequence (Q6L8Q7 43-609): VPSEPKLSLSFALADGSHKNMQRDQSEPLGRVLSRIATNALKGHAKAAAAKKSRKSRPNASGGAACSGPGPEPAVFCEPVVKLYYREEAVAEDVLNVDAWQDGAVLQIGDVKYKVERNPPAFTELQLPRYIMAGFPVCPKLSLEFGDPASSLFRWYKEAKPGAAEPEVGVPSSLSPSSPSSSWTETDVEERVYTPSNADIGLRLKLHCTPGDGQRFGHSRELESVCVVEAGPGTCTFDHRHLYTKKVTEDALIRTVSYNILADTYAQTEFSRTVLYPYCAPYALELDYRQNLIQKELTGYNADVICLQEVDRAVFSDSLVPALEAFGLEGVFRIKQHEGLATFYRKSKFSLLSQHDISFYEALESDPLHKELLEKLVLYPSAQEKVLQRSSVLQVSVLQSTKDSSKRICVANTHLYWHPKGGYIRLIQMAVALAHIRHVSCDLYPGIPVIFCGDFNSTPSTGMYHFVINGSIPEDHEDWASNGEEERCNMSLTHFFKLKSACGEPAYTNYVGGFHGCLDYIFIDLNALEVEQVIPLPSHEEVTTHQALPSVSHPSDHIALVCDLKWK
Test: Competitive isoTOP-ABPP, cell lysates
Format: binding
Details: 500 μm, in-vitro_ramos_231
Please reply with the number alone, leaving off any unit.

isoTOP-ABPP reactivity ratio, Q6L8Q7_C108 recorded for this molecule, COC(=O)C1Cc2ccccc2CN1C(=O)CCl (stereo not shown) [compound 39] , is 3.2

isoTOP-ABPP reactivity ratio, Q6L8Q7_C108 recorded for this molecule, O=C(CCl)Nc1ccccc1C1CCCCCC1 [compound 35] , is 0.8

isoTOP-ABPP reactivity ratio, Q6L8Q7_C108 recorded for this molecule, CC(C)(C)c1cc(NC(=O)CCl)on1 [compound 32] , is 2.5

isoTOP-ABPP reactivity ratio, Q6L8Q7_C108 recorded for this molecule, Cc1ccc(C=C(C#N)C(=O)NCCN2CCOCC2)cc1 [compound 41] , is 1.3

isoTOP-ABPP reactivity ratio, Q6L8Q7_C108 recorded for this molecule, C=CC(=O)Nc1cc(C)c(Br)cc1C [compound 40] , is 0.8

Next:
isoTOP-ABPP reactivity ratio, Q6L8Q7_C108 recorded for this molecule, C=CC(=O)Nc1cc(F)c(N2CCN(C(=O)OC(C)(C)C)CC2)c(F)c1 [compound 38] , is 0.9

isoTOP-ABPP reactivity ratio, Q6L8Q7_C108 recorded for this molecule, C=CC(=O)N(Cc1cccnc1)c1cc(C(F)(F)F)cc(C(F)(F)F)c1 [compound 31] , is 2.0
